Record form. Attribute: EC50. Fill in for each entry.
ASSAYED TARGET: cellular TDO2 in HEK293-TDO2 cells (Homo sapiens, UniProt P48775)
Sequence (P48775 whole entry): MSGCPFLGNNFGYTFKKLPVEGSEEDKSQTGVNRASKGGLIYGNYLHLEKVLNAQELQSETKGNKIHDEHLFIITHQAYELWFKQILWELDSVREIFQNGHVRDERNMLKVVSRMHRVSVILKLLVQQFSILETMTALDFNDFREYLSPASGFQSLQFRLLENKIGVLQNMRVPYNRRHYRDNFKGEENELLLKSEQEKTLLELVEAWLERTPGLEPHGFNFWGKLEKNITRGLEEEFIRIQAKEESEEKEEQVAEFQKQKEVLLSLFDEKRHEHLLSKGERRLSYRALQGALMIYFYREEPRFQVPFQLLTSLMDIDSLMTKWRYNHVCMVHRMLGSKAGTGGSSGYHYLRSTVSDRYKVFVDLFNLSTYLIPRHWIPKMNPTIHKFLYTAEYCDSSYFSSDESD
ASSAY PROCEDURE: 293-TDO2 cell-based assay (Kyn colorimetric)
EXPERIMENTAL SETUP: 48 hours of incubation
Method: The inhibitory activity of TDO2 inhibitors is determined by using a colorimetric reaction to measure Kyn generated from L-Trp (L-Tryptophon) oxidation by cellular TDO2 in HEK293-TDO2 cells stably transfected with a plasmid expression of Tryptophan 2,3-dioxygenase (for short, 293-TDO2). HEK293 cells were obtained from the American Type Culture Collection and 293-TDO2 were recovered in 10% FBS-containing phenol red-free DMEM medium. […]

Returns the measured EC50 for the input molecule. Input: NS(=O)(=O)Nc1ccc([C@H]2CC[C@H]([C@H](O)c3c(C4CC4)ccc4cncn34)CC2)cc1
> 10 µM

Returns the measured EC50 for the input molecule. Input: CC(C)c1ccc2cncn2c1[C@@H](O)[C@H]1CC[C@H](c2ccc(Cl)cc2)CC1 (single isomer, unassigned) [Example D115a]
> 10 µM

Returns the measured EC50 for the input molecule. Input: CC(C)c1ccc2cncn2c1[C@H](O)[C@H]1CC[C@H](c2ccc(Cl)cc2)CC1 (single isomer, unassigned) [Example D115b]
> 10 µM

Returns the measured EC50 for the input molecule. Input: OC(c1c(C2CC2)ccc2cncn12)[C@H]1CC[C@H](c2cccc(F)c2F)CC1 (single isomer, unassigned) [Example D132a]
> 10 µM

Returns the measured EC50 for the input molecule. Input: O[C@H](c1c(C2CC2)ccc2cncn12)C1CCN(c2cccc(Cl)c2)CC1 (single isomer, unassigned) [Example D173a]
> 10 µM

Returns the measured EC50 for the input molecule. Input: O[C@@H](c1c(C2CC2)ccc2cncn12)[C@H]1CC[C@H](c2cccc3ccccc32)CC1 (single isomer, unassigned) [Example D135b]
> 10 µM

Returns the measured EC50 for the input molecule. Input: Cn1cc(-c2ccc(N3CCC(C(O)c4c(C5CC5)ccc5cncn45)CC3)cc2)cn1 (centres unmarked)
> 10 µM

Returns the measured EC50 for the input molecule. Input: OC(c1c(C2CC2)ccn2cncc12)C1CCN(C2CC2)CC1 (centres unmarked)
> 10 µM

Returns the measured EC50 for the input molecule. Input: OC(c1c(C2CC2)ccn2cncc12)C1CCC(c2ccc(F)c(Cl)c2)CC1 (centres unmarked)
> 10 µM

Returns the measured EC50 for the input molecule. Input: O[C@@H](c1c(C2CC2)ccc2cncn12)C1CCN(c2cccc(Cl)c2)CC1 (single isomer, unassigned) [Example D173b]
> 10 µM

Returns the measured EC50 for the input molecule. Input: O[C@H](c1cc(Cl)cc2cncn12)[C@H]1CC[C@H](c2ccc3ccccc3c2)CC1 (single isomer, unassigned) [Example E104a]
> 10 µM

Returns the measured EC50 for the input molecule. Input: CNC(=O)c1ccc([C@H]2CC[C@H]([C@@H](O)c3c(C4CC4)ccc4cncn34)CC2)cc1 (single isomer, unassigned) [Example D124b]
> 10 µM

Returns the measured EC50 for the input molecule. Input: Cc1cccc(C2CCC(C(O)c3c(C4CC4)ccn4cncc34)CC2)c1 (racemic)
> 10 µM

Returns the measured EC50 for the input molecule. Input: COc1ccc([C@H]2CC[C@H]([C@H](O)c3c(C4CC4)ccn4cncc34)CC2)cc1 [Example C101a]
> 10 µM

Cited source: patent US10882856B2
